protocol details: Tmax in monkey at 20 mg/kg, po
Type: ADME, organism-based, Macaca mulatta
Parameters: dose 20 mg/kg, route oral
protocol conditions: rhesus monkey, in vivo
quantity: Tmax
Reply with a number, then the unit it belongs to.

Query block: Identify measured Tmax associated with `COc1cccc(CNC(=O)c2nc3scc(COCc4ccc(C(=O)[O-])cc4)c3c(=O)[n-]2)c1.[Na+].[Na+]`
Result block: 3 h

----------
protocol details: Oral bioavailability in guinea pig at 10 mg/kg
Assay type: ADME, organism-based, Cavia porcellus
protocol conditions: in vivo
quantity: bioavailability (%)
Give just the numeric value; % need not be written.

Query block: Identify measured bioavailability associated with COc1cccc(CNC(=O)c2nc3scc(COCc4ccc(C(=O)O)cc4)c3c(=O)[nH]2)c1 [T-26c]
Result block: 28

----------
protocol details: AUC in guinea pig at 1 mg/kg, iv and 10 mg/kg, po
Assay type: ADME, organism-based, Cavia porcellus
protocol conditions: plasma
quantity: AUC (ng·h/mL)
Give just the numeric value; ng·h/mL need not be written.

Query block: Identify measured AUC associated with COc1cccc(CNC(=O)c2nc3scc(COCc4ccc(C(=O)O)cc4)c3c(=O)[nH]2)c1 [T-26c]
Result block: 6480

----------
protocol details: Total body clearance in guinea pig at 1 mg/kg, iv and 10 mg/kg, po
Type: ADME, organism-based, Cavia porcellus
protocol conditions: in vivo
quantity: clearance (mL/min/kg)
Give just the numeric value; mL/min/kg need not be written.

Query block: Identify measured clearance associated with COc1cccc(CNC(=O)c2nc3scc(COCc4ccc(C(=O)O)cc4)c3c(=O)[nH]2)c1 [T-26c]
Result block: 7.18

----------
protocol details: Volume of distribution at steady state in guinea pig at 1 mg/kg, iv and 10 mg/kg, po
Type: ADME, organism-based, Cavia porcellus
protocol conditions: in vivo, read-out: Vdss
quantity: Vd (L/kg)
Give just the numeric value; L/kg need not be written.

Query block: Identify measured Vd associated with COc1cccc(CNC(=O)c2nc3scc(COCc4ccc(C(=O)O)cc4)c3c(=O)[nH]2)c1 [T-26c]
Result block: 0.923

----------
protocol details: AUC in monkey at 20 mg/kg, po
Assay type: ADME, organism-based, Macaca mulatta
Design: dose 20 mg/kg, route oral
protocol conditions: rhesus monkey, plasma
quantity: AUC (ng·h/mL)
Give just the numeric value; ng·h/mL need not be written.

Query block: Identify measured AUC associated with `COc1cccc(CNC(=O)c2nc3scc(COCc4ccc(C(=O)[O-])cc4)c3c(=O)[n-]2)c1.[Na+].[Na+]`
Result block: 82400

----------
protocol details: Tmax in guinea pig at 1 mg/kg, iv and 10 mg/kg, po
Format: ADME, organism-based, Cavia porcellus
protocol conditions: in vivo
quantity: Tmax (min)
Give just the numeric value; min need not be written.

Query block: Identify measured Tmax associated with COc1cccc(CNC(=O)c2nc3scc(COCc4ccc(C(=O)O)cc4)c3c(=O)[nH]2)c1 [T-26c]
Result block: 49.8

----------
protocol details: Cmax in monkey at 20 mg/kg, po
Format: ADME, organism-based, Macaca mulatta
Design: dose 20 mg/kg, route oral
protocol conditions: rhesus monkey, in vivo
quantity: Cmax (ng/mL)
Give just the numeric value; ng/mL need not be written.

Query block: Identify measured Cmax associated with `COc1cccc(CNC(=O)c2nc3scc(COCc4ccc(C(=O)[O-])cc4)c3c(=O)[n-]2)c1.[Na+].[Na+]`
Result block: 6610
